# experimentalTarget: T1, full length human PAR-2 (human, UniProt P55085 26-397)
# T1 construct: overexpressed on HEK293-derived 293/D9 cells; also called 293/D9/hPAR-2rec cells
# T1 sequence (P55085 26-397 G138A limits assumed): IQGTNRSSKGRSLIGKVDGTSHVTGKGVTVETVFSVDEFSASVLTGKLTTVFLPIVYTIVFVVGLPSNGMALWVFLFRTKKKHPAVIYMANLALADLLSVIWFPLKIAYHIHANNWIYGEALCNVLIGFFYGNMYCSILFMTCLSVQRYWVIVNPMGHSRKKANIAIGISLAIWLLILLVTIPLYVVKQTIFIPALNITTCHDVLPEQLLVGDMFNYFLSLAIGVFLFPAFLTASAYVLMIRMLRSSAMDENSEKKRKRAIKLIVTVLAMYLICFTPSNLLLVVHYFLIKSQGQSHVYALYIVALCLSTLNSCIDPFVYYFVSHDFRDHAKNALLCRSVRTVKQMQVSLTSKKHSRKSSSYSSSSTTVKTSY
# measurementProtocol: cell ELISA, 10 ug/ml antibody
recordedEndpoint: A450 ratio (293/D9/hPAR-2rec to 293/D9 cells)
Give the figure by itself; no unit, no explanation.

Past entries and their recorded results:
Consider the binder shown here: H2M588N (antibody, V domains shown, chimeric: human variable, mouse constant domains) VH: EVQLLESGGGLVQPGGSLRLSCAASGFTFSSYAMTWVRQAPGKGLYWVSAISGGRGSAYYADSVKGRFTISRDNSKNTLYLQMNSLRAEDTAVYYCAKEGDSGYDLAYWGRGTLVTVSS VL: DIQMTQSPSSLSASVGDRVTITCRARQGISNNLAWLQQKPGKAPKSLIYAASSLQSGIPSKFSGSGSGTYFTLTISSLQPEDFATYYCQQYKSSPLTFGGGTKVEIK What is its recorded A450 ratio (293/D9/hPAR-2rec to 293/D9 cells)?
2.5

Consider the binder shown here: H2M589N (antibody, V domains shown, chimeric: human variable, mouse constant domains) VH: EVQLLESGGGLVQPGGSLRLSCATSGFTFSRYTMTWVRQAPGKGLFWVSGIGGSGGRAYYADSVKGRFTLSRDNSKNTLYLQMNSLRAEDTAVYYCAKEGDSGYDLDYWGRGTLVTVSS VL: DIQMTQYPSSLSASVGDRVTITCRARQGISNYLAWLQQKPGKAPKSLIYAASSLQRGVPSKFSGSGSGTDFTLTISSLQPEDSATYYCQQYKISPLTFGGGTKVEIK What is its recorded A450 ratio (293/D9/hPAR-2rec to 293/D9 cells)?
2.03

Here is the next item to consider.
Consider the binder shown here: H2M618N (antibody, V domains shown, chimeric: human variable, mouse constant domains) VH: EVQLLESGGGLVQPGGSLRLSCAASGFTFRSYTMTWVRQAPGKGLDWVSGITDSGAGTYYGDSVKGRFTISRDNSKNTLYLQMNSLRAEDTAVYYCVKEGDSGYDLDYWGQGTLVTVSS VL: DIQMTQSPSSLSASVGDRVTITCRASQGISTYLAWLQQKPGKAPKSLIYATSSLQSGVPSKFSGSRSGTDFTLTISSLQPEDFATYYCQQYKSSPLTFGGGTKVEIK What is its recorded A450 ratio (293/D9/hPAR-2rec to 293/D9 cells)?
2.44
